Tested on: test plant species
test_details: Post-emergent herbicidal activity test (greenhouse, foliar spray, visual growth reduction)
Format: in vivo
applied_conditions: post-emergence, 336 h, yellow nutsedge (Cyperus esculentus), 14 Days After Application, 140 g ai/ha, read-out: Visual Growth Reduction (%) CYPES
Description: Post-emergent Test: Seeds or nutlets of the desired test plant species were planted in Sun Gro Metro-Mix® 360 planting mixture, which typically has a pH of 6.0 to 6.8 and an organic matter content of about 30 percent, in plastic pots with a surface area of 64 square centimeters. In some aspects, to ensure good germination and healthy plants, a fungicide treatment and/or other chemical or physical treatment was applied. […]
readout_name: pest or weed control at 140 g/ha

structure_as_smiles | readout_name | value_observed
COC(=O)c1nc(-c2ccc3c(c2)C(F)(F)OC(F)(F)O3)ccc1Cl | pest or weed control at 140 g/ha | 0 to 29%
COC(=O)c1nc(-c2ccc(C(F)(F)F)cc2F)ncc1Cl | pest or weed control at 140 g/ha | 45 to 59%
COC(=O)c1nc(-c2ccc(C(F)(F)F)cc2OC)ncc1Cl | pest or weed control at 140 g/ha | 0 to 29%
COC(=O)c1nc(-c2ccc3c(c2C)OC(F)(F)O3)c(F)cc1Cl | pest or weed control at 140 g/ha | 45 to 59%
COC(=O)c1nc(-c2ccc(OC(F)F)cc2F)c(F)cc1Cl | pest or weed control at 140 g/ha | 75 to 84%
COC(=O)c1nc(-c2cc(N)c(C(F)(F)F)cc2Cl)ccc1Cl | pest or weed control at 140 g/ha | 0 to 29%
COC(=O)c1nc(-c2ccc(C(F)(F)F)c3ccoc23)c(F)cc1Cl | pest or weed control at 140 g/ha | 0 to 29%
COC(=O)c1cc2c(c(-c3ccc(Cl)c(C(=O)OC)n3)c1)OC(F)(F)O2 | pest or weed control at 140 g/ha | 45 to 59%
O=C(O)c1nc(-c2c(Cl)cc(C(F)(F)F)cc2[N+](=O)[O-])ccc1Cl | pest or weed control at 140 g/ha | 0 to 29%
COC(=O)c1nc(-c2cc(SC)c(C(F)(F)F)cc2Cl)c(F)cc1Cl | pest or weed control at 140 g/ha | 0 to 29%
COC(=O)c1nc(-c2ccc3ncoc3c2)ccc1Cl | pest or weed control at 140 g/ha | 0 to 29%
COC(=O)c1nc(-c2c(N)cc(C(F)(F)F)cc2Cl)ccc1Cl | pest or weed control at 140 g/ha | 0 to 29%
C=C(C)COC(=O)c1nc(-c2ccc(C(F)(F)F)cc2Cl)ccc1Cl | pest or weed control at 140 g/ha | 0 to 29%
Cc1cc(C(F)(F)F)cc(Cl)c1-c1ccc(Cl)c(C(=O)O)n1 | pest or weed control at 140 g/ha | 0 to 29%
COC(=O)c1nc(-c2ccc(C(F)(F)F)c(Br)c2Cl)c(F)cc1Cl | pest or weed control at 140 g/ha | 0 to 29%
COC(=O)c1nc(-c2ccc(C(F)(F)F)cc2Br)c(F)cc1F | pest or weed control at 140 g/ha | 0 to 29%
COC(=O)c1nc(-c2ccc(C3CC3)c(F)c2)ccc1Cl | pest or weed control at 140 g/ha | 0 to 29%
COC(=O)c1nc(-c2ccc(O)cc2F)c(F)cc1Cl | pest or weed control at 140 g/ha | 0 to 29%
O=C(OCc1ccccc1C(F)(F)F)c1nc(-c2ccc(C(F)(F)F)cc2Cl)ccc1Cl | pest or weed control at 140 g/ha | 0 to 29%
COC(=O)c1nc(-c2ccc(OS(C)(=O)=O)cc2F)c(F)cc1Cl | pest or weed control at 140 g/ha | 30 to 44%

----------
System: test plant species
test_details: Post-emergent herbicidal activity test (greenhouse, foliar spray, visual growth reduction)
Assay type: in vivo
applied_conditions: post-emergence, 336 h, SORVU: grain sorghum (Sorghum vulgare), 140 g ai/ha, 14 days after application, read-out: Visual Growth Reduction (%) 14 Days After Application, SORVU
readout_name: pest or weed control at 140 g/ha

structure_as_smiles | assay_target | value_observed
COC(=O)c1nc(-c2ccc(C(F)(F)F)c(C)c2)c(F)cc1Cl | test plant species | 0 to 29%
O=C(O)c1nc(-c2cc(F)c3c(c2)OC(F)(F)O3)ccc1Cl | test plant species | 75 to 84%
C=C(C)COC(=O)c1nc(-c2ccc(C(F)(F)F)cc2Cl)ccc1Cl | test plant species | 85 to 94%
COC(=O)c1nc(-c2ccc(C#N)cc2F)c(F)cc1Cl | test plant species | 75 to 84%
COC(=O)c1nc(-c2ccc(C(F)(F)F)cc2C(N)=O)ccc1Cl | test plant species | 0 to 29%
COC(=O)c1nc(-c2ccc(OC(F)(F)F)cc2)c(F)cc1Cl | test plant species | 60 to 74%

----------
Tested on: test plant species
test_details: Post-emergent herbicidal activity test (greenhouse, foliar spray, visual growth reduction)
Format: in vivo
applied_conditions: post-emergence, 336 h, IPOHE: ivy-leaf morning glory (Ipomoea hederacea), 140 g ai/ha, 14 days after application, read-out: Visual Growth Reduction (%) 14 Days After Application, IPOHE
Text: Post-emergent Test: Seeds or nutlets of the desired test plant species were planted in Sun Gro Metro-Mix® 360 planting mixture, which typically has a pH of 6.0 to 6.8 and an organic matter content of about 30 percent, in plastic pots with a surface area of 64 square centimeters. In some aspects, to ensure good germination and healthy plants, a fungicide treatment and/or other chemical or physical treatment was applied. […]

structure_as_smiles | assay_target | pest or weed control at 140 g/ha
COC(=O)c1nc(-c2ccc(C(F)(F)F)cc2OC)c(F)cc1Cl | test plant species | 95 to 100%
COC(=O)c1nc(-c2ccc(C(F)(F)F)cc2)c(Cl)cc1Cl | test plant species | 45 to 59%
COCC(F)(F)c1ccc(-c2ccc(Cl)c(C(=O)O)n2)c(Cl)c1 | test plant species | 95 to 100%
O=C(O)c1nc(-c2ccc(OC(F)(F)F)cc2Cl)ccc1Cl | test plant species | 95 to 100%
COC(=O)c1nc(-c2ccc(Cl)c(OC)c2F)cc(Cl)c1Cl | test plant species | 30 to 44%
COc1cc(C(F)(F)F)ccc1-c1nc(C(=O)O)c(Cl)cc1F | test plant species | 95 to 100%
O=C(O)c1nc(-c2cc(F)c3c(c2)OC(F)(F)O3)ccc1Cl | test plant species | 95 to 100%
COC(=O)c1nc(-c2ccc(F)cc2Cl)ccc1Cl | test plant species | 75 to 84%
COC(=O)c1nc(-c2ccc(C(F)(F)F)cc2C#N)ccc1Cl | test plant species | 95 to 100%
COC(=O)c1nc(-c2ccc(C(F)(F)F)cc2C)ccc1Cl | test plant species | 95 to 100%

----------
System: test plant species
test_details: Post-emergent herbicidal activity test (greenhouse, foliar spray, visual growth reduction)
Type: in vivo
applied_conditions: post-emergence, 336 h, TRZAS: wheat, spring (Triticum aestivum), 140 g ai/ha, 14 days after application, read-out: Visual Growth Reduction (%) 14 Days After Application, TRZAS
Entries and their pest or weed control at 140 g/ha
readout_name: pest or weed control at 140 g/ha

structure_as_smiles | readout_name | value_observed
COC(=O)c1nc(-c2ccc(Oc3ccc(F)cc3)cc2Cl)ccc1Cl | pest or weed control at 140 g/ha | 0 to 29%
COC(=O)c1nc(-c2ccc3c(c2)C(F)(F)OC(F)(F)O3)c(Cl)cc1Cl | pest or weed control at 140 g/ha | 0 to 29%
COC(=O)c1nc(-c2ccc(C(F)(F)F)cc2C)c(F)cc1Cl | pest or weed control at 140 g/ha | 60 to 74%
COC(=O)c1nc(-c2cccc(Cl)c2F)ccc1Cl | pest or weed control at 140 g/ha | 0 to 29%
COC(=O)c1nc(-c2cc3c(cc2Cl)OCO3)c(F)cc1Cl | pest or weed control at 140 g/ha | 0 to 29%
O=C(O)c1nc(-c2cnc(C(F)(F)F)cc2Cl)ccc1Cl | pest or weed control at 140 g/ha | 0 to 29%
COC(=O)c1nc(-c2ccc(C(F)(F)F)c(S(C)(=O)=O)c2Cl)ccc1Cl | pest or weed control at 140 g/ha | 0 to 29%
COC(=O)c1nc(-c2ccc(C3(C#N)CC3)cc2Cl)ccc1Cl | pest or weed control at 140 g/ha | 0 to 29%
C#Cc1cc(-c2nc(C(=O)OC)c(Cl)cc2F)c(Cl)cc1C(F)(F)F | pest or weed control at 140 g/ha | 0 to 29%
COC(=O)c1nc(-c2ccc(C3(C#N)CC3)cc2Cl)c(Cl)cc1Cl | pest or weed control at 140 g/ha | 0 to 29%
COC(=O)c1nc(-c2ccc(Cl)c(N(C)C)c2)ccc1Cl | pest or weed control at 140 g/ha | 0 to 29%
COC(=O)c1nc(-c2ccc(C(F)(F)F)cc2C)c(F)cc1F | pest or weed control at 140 g/ha | 0 to 29%
COC(=O)c1nc(-c2cc3c(cc2F)OC(F)(F)O3)ccc1Cl | pest or weed control at 140 g/ha | 45 to 59%
COC(=O)c1nc(-c2cc3c(cc2Cl)OC(F)(F)O3)ccc1Cl | pest or weed control at 140 g/ha | 60 to 74%
COC(=O)c1nc(-c2cc(F)c(C(F)(F)F)cc2OC)c(F)cc1Cl | pest or weed control at 140 g/ha | 60 to 74%
CCCOC(=O)c1nc(-c2ccc(Cl)c(OC)c2F)ccc1Cl | pest or weed control at 140 g/ha | 0 to 29%
COC(=O)c1nc(-c2ccc(C=O)c(F)c2OC)c(F)cc1Cl | pest or weed control at 140 g/ha | 0 to 29%
COC(=O)c1nc(-c2cc(OC)c3c(c2)OCO3)c(F)cc1Cl | pest or weed control at 140 g/ha | 0 to 29%
N#Cc1cc(C(F)(F)F)cc(Cl)c1-c1ccc(Cl)c(C(=O)O)n1 | pest or weed control at 140 g/ha | 45 to 59%
COC(=O)c1nc(-c2ccc(C#N)cc2)c(F)cc1Cl | pest or weed control at 140 g/ha | 0 to 29%
COC(=O)c1nc(-c2ccc(OS(C)(=O)=O)cc2Cl)ccc1Cl | pest or weed control at 140 g/ha | 30 to 44%

Taken from patent US20230017045A1.
